Where do the numbers come from? From patent US7091202B2.

Target desc: hQ23 (HEK-293 cell line stably transfected with one of the members of the KCNQ family) (Homo sapiens, UniProt O43525+O43526)
Construct: expressed in transfected cells; host or cells: HEK-293, stably transfected
Sequence (O43526 whole entry): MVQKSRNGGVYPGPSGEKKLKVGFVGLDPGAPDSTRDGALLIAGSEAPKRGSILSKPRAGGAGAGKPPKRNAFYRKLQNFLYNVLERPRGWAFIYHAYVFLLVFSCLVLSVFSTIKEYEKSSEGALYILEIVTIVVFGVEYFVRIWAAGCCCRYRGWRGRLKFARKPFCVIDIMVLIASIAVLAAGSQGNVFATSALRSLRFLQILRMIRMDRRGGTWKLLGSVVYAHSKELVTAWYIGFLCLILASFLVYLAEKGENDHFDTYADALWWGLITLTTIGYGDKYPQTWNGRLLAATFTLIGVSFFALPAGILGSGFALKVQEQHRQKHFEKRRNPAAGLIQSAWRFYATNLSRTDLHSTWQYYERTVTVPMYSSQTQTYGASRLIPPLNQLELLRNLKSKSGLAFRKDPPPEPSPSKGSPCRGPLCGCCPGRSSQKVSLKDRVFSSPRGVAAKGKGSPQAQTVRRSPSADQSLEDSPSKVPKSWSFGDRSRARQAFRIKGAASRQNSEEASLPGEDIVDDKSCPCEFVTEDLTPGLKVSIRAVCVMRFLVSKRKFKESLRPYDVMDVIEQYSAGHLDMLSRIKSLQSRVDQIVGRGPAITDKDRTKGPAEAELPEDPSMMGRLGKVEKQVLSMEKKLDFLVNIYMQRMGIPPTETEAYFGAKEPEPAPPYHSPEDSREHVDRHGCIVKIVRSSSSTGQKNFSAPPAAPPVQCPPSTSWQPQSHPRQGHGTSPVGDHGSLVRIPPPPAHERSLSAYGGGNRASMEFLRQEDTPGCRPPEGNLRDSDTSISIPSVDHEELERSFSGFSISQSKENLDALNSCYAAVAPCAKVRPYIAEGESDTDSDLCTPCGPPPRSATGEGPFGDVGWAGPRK
Sequence (O43525 whole entry): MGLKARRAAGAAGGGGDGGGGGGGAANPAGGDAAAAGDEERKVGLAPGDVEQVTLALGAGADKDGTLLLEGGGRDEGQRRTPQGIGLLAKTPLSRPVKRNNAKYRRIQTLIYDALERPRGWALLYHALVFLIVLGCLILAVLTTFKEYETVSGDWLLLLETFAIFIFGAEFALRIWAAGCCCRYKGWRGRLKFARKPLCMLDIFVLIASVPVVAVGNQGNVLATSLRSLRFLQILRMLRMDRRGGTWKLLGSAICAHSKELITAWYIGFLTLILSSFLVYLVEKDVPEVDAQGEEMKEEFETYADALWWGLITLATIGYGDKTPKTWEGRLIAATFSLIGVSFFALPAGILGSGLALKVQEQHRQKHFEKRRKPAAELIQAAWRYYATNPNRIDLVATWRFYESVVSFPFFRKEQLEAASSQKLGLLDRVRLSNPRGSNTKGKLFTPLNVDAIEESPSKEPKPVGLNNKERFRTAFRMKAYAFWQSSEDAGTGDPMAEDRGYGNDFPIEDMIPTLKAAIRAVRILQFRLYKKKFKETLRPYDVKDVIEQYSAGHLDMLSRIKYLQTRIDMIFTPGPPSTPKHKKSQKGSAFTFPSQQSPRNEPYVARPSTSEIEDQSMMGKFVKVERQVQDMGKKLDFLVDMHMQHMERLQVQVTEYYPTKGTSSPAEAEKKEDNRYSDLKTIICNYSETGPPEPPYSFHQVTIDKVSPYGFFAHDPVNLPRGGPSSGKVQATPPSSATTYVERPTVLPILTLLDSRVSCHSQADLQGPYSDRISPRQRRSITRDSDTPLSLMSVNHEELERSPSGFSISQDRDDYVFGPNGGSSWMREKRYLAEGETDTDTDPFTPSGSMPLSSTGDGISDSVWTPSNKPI
Measurement description: Thallium flux assay for KCNQ channel blockers (FLIPR, BTC dye)
Type: cell-based
Condition parameters: hQ23 cells, thallium flux
Assay endpoint: EC50 (nM)

// known answers, use as guide
Compound	Assay endpoint	Measured value
CC1CCN(c2ncc(C(=O)N3CCCC(C)C3)c(C3(c4ccccc4)CCCC3)n2)CC1 (stereo not drawn)	EC50	775
CN1CCN(c2ncc(C(=O)NCc3ccc(C(F)(F)F)cc3)c(C3(c4ccc(Cl)cc4)CCCC3)n2)CC1	EC50	879
CC1CCC(Nc2ncc(C(=O)NCc3ccc(Cl)cc3Cl)c(C3(c4ccccc4)CCCC3)n2)CC1 (stereo not drawn)	EC50	68
CC1CCN(c2ncc(C(=O)NCc3cccc4ccccc34)c(C3(c4ccc(Cl)cc4)CCCC3)n2)CC1	EC50	10

1 = CCN(Cc1ccccc1)C(=O)c1cnc(NC2CCC(C)CC2)nc1C1(c2ccc(F)cc2)CCCC1 (stereo not drawn)
2 = CN1CCC(N(C)c2ncc(C(=O)NCc3cc(F)cc(C(F)(F)F)c3)c(C3(c4ccc(Cl)cc4)CCCC3)n2)CC1
q: Select one: 1 or 2 . Criterion: greater recorded EC50. Let me know the label of the one you choose.
a: 1
(1: 637 nM, 2: 130 nM)
